- assay_procedure: Effect of temperature and solvent on the equilibrium composition of the pteropodine isomers
- Assay type: physicochemical
- experimental_conditions: 37° C., methanol
Here, each record is paired with measured equilibrium composition data.
observation_type: equilibrium composition (% per weight)

• COC(=O)C1=COC(C)C2CN3CCC4(C(=O)Nc5ccccc54)C3CC12 (stereo not shown) [Pteropodine, pteropodine] = 22.6
• COC(=O)C1=CO[C@@H](C)[C@@H]2CN3CC[C@@]4(C(=O)Nc5ccccc54)[C@@H]3C[C@H]12 = 75.5
• COC(=O)C1=COC(C)C2CN3CCC4(C(=O)Nc5ccccc54)C3CC12 (stereo not shown) [Uncarine F, uncarine F] = 1.4
• COC(=O)C1=COC(C)C2CN3CCC4(C(=O)Nc5ccccc54)C3CC12 (stereo not shown) [Speciophylline, speciophylline] = 0.5

---

Here, each record is paired with measured equilibrium composition data.
- assay_procedure: Effect of temperature and solvent on the equilibrium composition of the pteropodine isomers
- Type: physicochemical
- experimental_conditions: 50° C., water
- Method: | Effect of temperature and solvent on the equilibrium composition | of the pteropodine isomers (temperature from 25 to | 50° C., % per weight) The use of solvents with different polarity gave different equilibria, while other conditions were identical.
observation_type: equilibrium composition

• COC(=O)C1=COC(C)C2CN3CCC4(C(=O)Nc5ccccc54)C3CC12 (stereo not shown) [Uncarine F, uncarine F] = 6.4 % per weight
• COC(=O)C1=COC(C)C2CN3CCC4(C(=O)Nc5ccccc54)C3CC12 (stereo not shown) [Speciophylline, speciophylline] = 4.6 % per weight
• COC(=O)C1=COC(C)C2CN3CCC4(C(=O)Nc5ccccc54)C3CC12 (stereo not shown) [Pteropodine, pteropodine] = 29.6 % per weight
• COC(=O)C1=CO[C@@H](C)[C@@H]2CN3CC[C@@]4(C(=O)Nc5ccccc54)[C@@H]3C[C@H]12 [Isopteropodine, isopteropodine] = 59.4 % per weight

Data origin: patent US5723625A
